B1: Pistol ribozyme (parent)
chain: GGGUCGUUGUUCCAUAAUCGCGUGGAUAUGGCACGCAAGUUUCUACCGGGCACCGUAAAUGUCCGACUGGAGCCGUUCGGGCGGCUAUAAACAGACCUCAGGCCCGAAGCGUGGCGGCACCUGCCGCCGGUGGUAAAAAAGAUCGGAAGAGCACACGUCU

Variants of: B1
Experiment: aptazyme ON/OFF ratio, guanine; higher = stronger switching; co-transcriptional cleavage with and without guanine
Here, each record is paired with measured aptazyme ON/OFF ratio data.
recorded-metric: aptazyme ON/OFF ratio

>>> recorded_number("U7A G9U C13G")
1.05
>>> recorded_number("U8A G9C U10C U11G C12G C13G")
1.12
>>> recorded_number("U8C G9A U10G U11C C12U")
1.07
>>> recorded_number("U7A U8A U10G U11A C13A")
1.19
>>> recorded_number("U7C G9U U11A C12A C13U")
1.29
>>> recorded_number("U7A U8C G9U U10G U11C C12U C13G")
1.19
>>> recorded_number("U7G U8G G9C U11G C12A C13U")
1.3
>>> recorded_number("U8C G9A U10G U11C C13A")
1.11
>>> recorded_number("U7G G9C U10G U11A C12U C13G")
1.28
>>> recorded_number("U7G U8A G9C C12A C13A")
1.04
>>> recorded_number("U7C U8A G9C U10A U11C C12G C13A")
1.29
